- study.system: Peregrin (Homo sapiens)
- reported.conditions: Compound concentration 20.0 uM
measured.metric: ΔTm (°C)
Hi! Could you send only the number? It should be in °C, unit omitted.

Example results:
1. C[C@@H]1CN(Cc2ncccn2)C[C@H]1c1nc2c(cnn2C2CCOCC2)c(=O)[nH]1	0.83
2. N[C@@H](CCCCNC(=O)OCc1ccc([N+](=O)[O-])cc1)C(=O)N1CCCC1	0.82
3. COCc1nc(C(F)(F)F)[nH]c1-c1cc(C(=O)N2CC(c3ccc(C#N)cc3)C2)c(C)cc1C	1.19
4. CCNC(=O)c1noc(-c2cc(C(C)C)c(O)cc2O)c1-c1ccc(CN2CCOCC2)cc1	-1.1
5. N#C[C@@H]1CCCN1C(=O)CNC(=O)c1ccnc2ccc(OCCCN3CCN(C(=O)CN4CCN(CC(=O)O)CCN(CC(=O)O)CCN(CC(=O)O)CC4)CC3)cc12	1.8
6. COC(=O)C1=C(C(=O)OC)[C@@]2([C@@H](Cc3ccc(C)cc3)Nc3ccccc3)C=C[C@@H]1O2	-3.55

The recorded ΔTm for `CS(=O)(=O)c1ccc(Oc2cc(F)cc(C#N)c2)c2c1[C@H](O)[C@H](F)[C@@H]2F` is 2.16
